B1: library; numbered along this chain (parent)
chain: MNIQIGELAKRTACPVVTIRFYEQEGLLPPPGRSRGNFRLYGEEHVERLQFIRHCRSLDMPLSDVRTLLSYRKRPDQDCGEVNMLLDEHIRQVESRIGALLELKHHLVELREACSGARPAQSCGILQGLSDCVCDTRGTTAHPSD

Variants of: B1
testName: sfGFP reporter fluorescence (15 h) (µM FITC); higher = stronger transcriptional activation
particulars: library round: Round 0; ligand: 30 µM Zn
So I've got a bunch of variants here, and I need their sfGFP reporter fluorescence values.
One number for each entry.

Completed entries (count: 4):
| sequenceRecord | quantitativeReadout |
| --- | --- |
| MNIQIGELAKRTACPVVTIAFYEQEGLLPPPGRSRGNFRLYGEEHVERLQFIRHCRSLDMPLSDVRTLLSYRKRPDQDCGEVNMLLDEHIRQVESRIGALLELKHHLVELREACSGARPAQSCGILQGLSDCVCDTRGTTAHPSD [R20A] | 0.0572 |
| MNIQIGELAKRTACPVVTIRFYEQEGLLPPPGRSRGNFRLYGEEHVERLQFIRHCRSLDMPLSDVRTLLSYRKRPDQDCGEVNMLLDEHIRQVESRIGALLELKHHLVELREACSGARPAQSCGILQGLSDCVCDTRGTTAHHSD [P143H] | 0.764 |
| MNIQIGELAKRTACNVVTIRFYEQEGLLPPPGRSRGNFRLYGEEHVERLQFIRHCRSLDMPLSDVRTLLSYRKRPDQDCGEVNMLLDEHIRQVESRIGALLELKHHLVELREACSGARPAQSCGILQGLSDCVCDTRGTTAHPSD [P15N] | 0.885 |
| MNIQIGELAKRTACPVVTIRFYEQEGLLPPPGRSRGNFRLYGEEHVERLQFIRHCRSLDMPLSDVRTLLSYRKRPDQDCGEVNMLLDEHIRQVESRIGALLELKHHLVELREACSGARPAQSCGILQGTSDCVCDTRGTTAHPSD [L129T] | 0.055 |

Value sought for every listed variant: sfGFP reporter fluorescence.
1. MNIQIGELAKRTACPVVTIRFYEQEGLLPPPGRSRGNFRLYGEEHVERLQFIRHCRSLDMPLSDVRTLLSYRKRPDQDCGEVNMLLDEHIRQVESRIGALLELKHHLVELREACSGARPAQSCGALQGLSDCVCDTRGTTAHPSD [I125A]
2. MNIQIGELAKRTACPVVTIRFYEQEGLLPPPGRSRGNFRLYGEEHVERLQFIRHCRALDMPLSDVRTLLSYRKRPDQDCGEVNMLLDEHIRQVESRIGALLELKHHLVELREACSGARPAQSCGILQGLSDCVCDTRGTTAHPSD [S57A]
3. MNIQIDELAKRTACPVVTIRFYEQEGLLPPPGRSRGNFRLYGEEHVERLQFIRHCRSLDMPLSDVRTLLSYRKRPDQDCGEVNMLLDEHIRQVESRIGALLELKHHLVELREACSGARPAQSCGILQGLSDCVCDTRGTTAHPSD [G6D]
4. MNIQIGELAKRTACMVVTIRFYEQEGLLPPPGRSRGNFRLYGEEHVERLQFIRHCRSLDMPLSDVRTLLSYRKRPDQDCGEVNMLLDEHIRQVESRIGALLELKHHLVELREACSGARPAQSCGILQGLSDCVCDTRGTTAHPSD [P15M]

[A]
[0.0585, 0.184, 0.0621, 0.637]
